Details: in acetone, 278.15 K
readout: solubility (mole fraction)
Please reply with the number alone, leaving off any unit.

Query :: What value of solubility (mole fraction) has been reported for the following compound? "O=Cc1ccc([N+](=O)[O-])cc1"
Result :: 0.051

###

Conditions: in 2-butanone, 298.15 K
readout: solubility (mole fraction)
// response body must contain only the number

Query :: Given "O=Cc1ccc([N+](=O)[O-])cc1" , state its recorded solubility (mole fraction).
Result :: 0.102

###

Conditions: in acetonitrile, 298.15 K
readout: solubility (mole fraction)
Just the number, please, no unit after it.

Query :: What value of solubility (mole fraction) has been reported for the following molecule? "O=Cc1ccc([N+](=O)[O-])cc1"
Result :: 0.102

###

Details: in 2-butanone, 278.15 K
readout: solubility (mole fraction)
// return a plain number; no unit text

Query :: // query solubility (mole fraction) value for entry "O=Cc1ccc([N+](=O)[O-])cc1"
Result :: 0.0459

###

Details: in ethanol, 288.15 K
readout: solubility (mole fraction)
# print the numeric value only

Query :: Form field: reported solubility (mole fraction) of "O=Cc1ccc([N+](=O)[O-])cc1"
Result :: 0.0232

###

Settings: in isopropanol, 273.15 K
readout: solubility (mole fraction)
Lab note: record the figure alone, no unit after it.

Query :: Returns the measured solubility (mole fraction) for the input compound. Input: "O=Cc1ccc([N+](=O)[O-])cc1"
Result :: 0.00326
